The origin of these recorded values is patent US20100181035A1.

Biological target: glucosyltransferase 72E1 (UGT72E1) (Arabidopsis thaliana, UniProt Q94A84)
Construct: made in house; host or cells: E. coli
Sequence (Q94A84 whole entry): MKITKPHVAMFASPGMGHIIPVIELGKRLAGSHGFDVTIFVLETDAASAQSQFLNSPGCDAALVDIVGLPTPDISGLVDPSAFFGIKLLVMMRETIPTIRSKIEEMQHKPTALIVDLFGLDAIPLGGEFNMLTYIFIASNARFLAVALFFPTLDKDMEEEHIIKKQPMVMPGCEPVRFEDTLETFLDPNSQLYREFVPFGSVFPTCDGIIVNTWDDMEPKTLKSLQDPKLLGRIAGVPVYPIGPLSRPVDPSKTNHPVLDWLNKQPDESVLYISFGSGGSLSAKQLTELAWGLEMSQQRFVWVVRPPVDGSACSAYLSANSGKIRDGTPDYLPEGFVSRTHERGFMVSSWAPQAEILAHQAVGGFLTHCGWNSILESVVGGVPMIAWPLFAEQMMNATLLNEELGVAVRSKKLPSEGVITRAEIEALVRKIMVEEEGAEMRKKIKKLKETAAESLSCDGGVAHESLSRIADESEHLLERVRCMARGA
Experiment: Glucosyltransferase activity assay with recombinant UGT72E1, HPLC analysis
Type: biochemical
Settings: substrate glucosylation; 2 μg enzyme, 1 mM phenolic substrate, 5 mM UDP-glucose, 100 mM Tris-HCl pH 7.0, 30° C., 1 h; HPLC peak area
Exercise: for every item that follows, state its recorded Activity (area, uv × sec) 72E1.
Answers are plain numbers, in uv × sec.

Study these solved cases before continuing.
[[record]]
smiles_record = "O=C/C=C/c1ccc(O)cc1"
assayed_target = "glucosyltransferase 72E1 (UGT72E1) (Arabidopsis thaliana, UniProt Q94A84)"
measured_endpoint = "Activity (area, uv × sec) 72E1"
uom = "uv × sec"
recorded_value = 9243651

[[record]]
smiles_record = "COc1cc(/C=C/CO)ccc1O"
assayed_target = "glucosyltransferase 72E1 (UGT72E1) (Arabidopsis thaliana, UniProt Q94A84)"
measured_endpoint = "Activity (area, uv × sec) 72E1"
uom = "uv × sec"
recorded_value = 3225766

[[record]]
smiles_record = "COc1cc(/C=C/CO)cc(OC)c1O"
assayed_target = "glucosyltransferase 72E1 (UGT72E1) (Arabidopsis thaliana, UniProt Q94A84)"
measured_endpoint = "Activity (area, uv × sec) 72E1"
uom = "uv × sec"
recorded_value = 0

[[record]]
smiles_record = "COc1cc(/C=C/C=O)cc(OC)c1O"
assayed_target = "glucosyltransferase 72E1 (UGT72E1) (Arabidopsis thaliana, UniProt Q94A84)"
measured_endpoint = "Activity (area, uv × sec) 72E1"
uom = "uv × sec"
recorded_value = 13655427

[[record]]
smiles_record = "COc1cc(/C=C/C=O)ccc1O"
assayed_target = "glucosyltransferase 72E1 (UGT72E1) (Arabidopsis thaliana, UniProt Q94A84)"
measured_endpoint = "Activity (area, uv × sec) 72E1"
uom = "uv × sec"
recorded_value = 21950129


Moving on to another compound below.
Note Activity (area, uv × sec) 72E1 for the compound shown: `OC/C=C/c1ccc(O)cc1`
0
